meta.source: paper PMC6661766

Could you please report measured E. coli MIC for the items listed next?
test system: E. coli; assay: Antimicrobial serial tube dilution, MIC and MBC; type: cell-based, Escherichia coli MTCC 1652; conditions: 24 h at 37 ± 2 °C
Give bare numbers, in mg/L.

Solved cases below.
Problem: Let me know recorded E. coli MIC for O=C(/C=C/c1ccc(Cl)cc1Cl)c1ccc(O)cc1 , thanks.
Solution: 15.62

Problem: Let me know recorded E. coli MIC for O=C(/C=C\c1cccc(Br)c1)c1cccc(N=Nc2cc(Cl)ccc2Cl)c1O , thanks.
Solution: 62.5

Problem: Let me know recorded E. coli MIC for O=C(/C=C/c1ccc(Cl)cc1Cl)c1ccc(O)c(N=Nc2cccc(Cl)c2Cl)c1 , thanks.
Solution: 15.62

Problem: Let me know recorded E. coli MIC for O=Cc1ccc(/C=C\C(=O)c2ccc(N=Nc3c(O)cccc3O)cc2)cc1 , thanks.
Solution: 15.62

For every record below, what is its E. coli MIC?
1. O=C(/C=C\c1ccco1)c1ccc(N=Nc2c(O)cccc2O)cc1
2. COc1ccccc1/C=C\C(=O)c1ccc(N=Nc2c(O)cccc2O)cc1

Solution:
[15.62, 7.81]

Problem: Let me know recorded E. coli MIC for O=C(/C=C\c1cc(Br)ccc1O)c1ccc(N=Nc2c(O)cccc2O)cc1 , thanks.
Solution: 15.62
